- ASSAY_METHOD_TEXT: protein stability index of a GFP-peptide fusion (yeast GPS) (PSI 1-4); higher = more stable; sorted into four equal gates, so the index is relative within each strain
- CONDITION_DESCRIPTION: san1∆
QUANTITY_KIND: protein stability index

| SEQUENCE_CONTENT | VALUE_REPORTED |
| --- | --- |
| ISLIPELSVVLSGIIQD [RRI2] | 1.96 |
| AKNETNSESDSKSDSDS [ITC1] | 3.09 |
| DLKKLNLNVYIQVFEKP [CDC53] | 2.33 |
| HLKHENANDETTAVEDE [RPB4] | 3.17 |
| GQRDLDRIAAQTLEEDE [RPS19A] | 3.29 |
| DPIWQHQSLGPDGLGEV [RET1] | 3.04 |
| STTMDGANDLGFTASVS [MED1] | 3.07 |
| WKATYSNEFKCMSVITA [YGL100W/SEH1] | 1.51 |
| GELFLNESWKSSFEKFN [SRP72] | 2.79 |
| EGDELENKTKKDNDKNL [SRB4] | 3.23 |
| PTLAGMAQRTLKNKYES [FAS2] | 2.63 |
| GQLLSVKFLVYQGVYSM [YML031W/NDC1] | 1.48 |
| TGAGAFGTGQSTFGFNN [YJL041W/NSP1] | 3.02 |
| PMLMANNDVFTIGPYRA [SSN3] | 3.13 |

src = the supplement of paper PMC9732359
